- CONDITION: in n-hexanol, 343.15 K
RESULT_TYPE: solubility (mole fraction)

chem_smiles=O=C(O)CN(CC(=O)O)CP(=O)(O)O result_type="solubility (mole fraction)" reported_measurement=0.00499

====

- CONDITION: in ethanol, 308.15 K
RESULT_TYPE: solubility (mole fraction)

chem_smiles=O=C(O)CN(CC(=O)O)CP(=O)(O)O reported_measurement=0.000102

====

- CONDITION: in ethyl acetate, 333.15 K
RESULT_TYPE: solubility (mole fraction)

chem_smiles=O=C(O)CN(CC(=O)O)CP(=O)(O)O result_type="solubility (mole fraction)" reported_measurement=0.00263

====

- CONDITION: in ethyl acetate, 313.15 K
RESULT_TYPE: solubility (mole fraction)

chem_smiles=O=C(O)CN(CC(=O)O)CP(=O)(O)O reported_measurement=0.00138

====

- CONDITION: in methanol, 313.15 K
RESULT_TYPE: solubility (mole fraction)

chem_smiles=O=C(O)CN(CC(=O)O)CP(=O)(O)O reported_measurement=0.000118

====

- CONDITION: in toluene, 313.15 K
RESULT_TYPE: solubility (mole fraction)

chem_smiles=O=C(O)CN(CC(=O)O)CP(=O)(O)O reported_measurement=0.00084

====

- CONDITION: in ethanol, 343.15 K
RESULT_TYPE: solubility (mole fraction)

chem_smiles=O=C(O)CN(CC(=O)O)CP(=O)(O)O reported_measurement=0.00176

====

- CONDITION: in n-butanol, 318.15 K
RESULT_TYPE: solubility (mole fraction)

chem_smiles=O=C(O)CN(CC(=O)O)CP(=O)(O)O result_type="solubility (mole fraction)" reported_measurement=0.000387

====

- CONDITION: in toluene, 308.15 K
RESULT_TYPE: solubility (mole fraction)

chem_smiles=O=C(O)CN(CC(=O)O)CP(=O)(O)O reported_measurement=0.000645

====

- CONDITION: in isopropanol, 328.15 K
RESULT_TYPE: solubility (mole fraction)

chem_smiles=O=C(O)CN(CC(=O)O)CP(=O)(O)O result_type="solubility (mole fraction)" reported_measurement=0.000898

====

- CONDITION: in acetone, 293.15 K
RESULT_TYPE: solubility (mole fraction)

chem_smiles=O=C(O)CN(CC(=O)O)CP(=O)(O)O reported_measurement=0.000176

====

- CONDITION: in n-butanol, 333.15 K
RESULT_TYPE: solubility (mole fraction)

chem_smiles=O=C(O)CN(CC(=O)O)CP(=O)(O)O result_type="solubility (mole fraction)" reported_measurement=0.00159

====

- CONDITION: in n-hexanol, 323.15 K
RESULT_TYPE: solubility (mole fraction)

chem_smiles=O=C(O)CN(CC(=O)O)CP(=O)(O)O reported_measurement=0.00233

====

- CONDITION: in toluene, 343.15 K
RESULT_TYPE: solubility (mole fraction)

chem_smiles=O=C(O)CN(CC(=O)O)CP(=O)(O)O result_type="solubility (mole fraction)" reported_measurement=0.0039

====

- CONDITION: in acetone, 303.15 K
RESULT_TYPE: solubility (mole fraction)

chem_smiles=O=C(O)CN(CC(=O)O)CP(=O)(O)O reported_measurement=0.000273

====

- CONDITION: in n-pentanol, 318.15 K
RESULT_TYPE: solubility (mole fraction)

chem_smiles=O=C(O)CN(CC(=O)O)CP(=O)(O)O reported_measurement=0.000583
